Target: recombinant human TFPI (tissue factor pathway inhibitor) (human, UniProt P10646 29-304)
Assay: cell-based or functional assay
Overview of reported effect of inhibiting TFPI, FXa activity assay, Ab 10 nM across a group of binders:

BINDER	MEASURED_RESULT
clone 3 (antibody, V domains shown) VH: EVQLVESGGGLVKPGGSLRLSCAASGFTFSSYAMNWVRQAPGKGLEWVGTITTGGSHTYYADSVDGRFTISRDNAKNSLYLQMNSLRAEDTAVYYCARQDGNFLMDYWGQGTLVTVSS VL: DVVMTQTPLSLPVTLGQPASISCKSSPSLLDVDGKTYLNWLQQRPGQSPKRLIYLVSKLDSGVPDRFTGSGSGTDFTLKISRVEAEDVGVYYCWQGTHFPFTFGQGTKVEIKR	~70%

Param item = clone 3241 (antibody, V domains shown, scFv on yeast at selection; human IgG4/kappa IgG as purified; also called No. 3241 antibody) VH: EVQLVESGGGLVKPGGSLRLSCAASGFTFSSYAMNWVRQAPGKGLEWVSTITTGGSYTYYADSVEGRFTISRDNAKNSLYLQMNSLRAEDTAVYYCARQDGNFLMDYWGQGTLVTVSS VL: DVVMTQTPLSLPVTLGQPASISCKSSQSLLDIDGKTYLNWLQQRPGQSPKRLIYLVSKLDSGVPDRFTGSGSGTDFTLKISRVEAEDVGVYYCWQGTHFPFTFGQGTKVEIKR ; retrieve measured effect of inhibiting TFPI, FXa activity assay, Ab 10 nM. ~83%
